Tested on: COLO 205 colon
Assay: NCI-60 one-dose screen, 48 h
Conditions: 10 µM
About 83,000 compounds went through this panel and 20% of them were active in at least one assay; those are over-represented in the sample as a whole. Activity calls are given as the source filed them. The calls were made as follows: active = growth percent below 10; inactive = the rest.
Outcome (select one): active, inactive

O=C(N/N=C/c1ccc(-c2cccc([N+](=O)[O-])c2)o1)c1[nH]c2ccc(Br)cc2c1-c1ccccc1 ... active
COc1cc(OC(F)(F)F)ccc1C(=O)Nc1sc2c(c1C#N)CCC(=O)C2 ... inactive
CC(C)c1ccc(C(=O)Nc2sc3c(c2C(N)=O)CCC(=O)C3=O)cc1 ... inactive
NC1=NC(c2ccccc2Cl)N=C(Nc2nn[nH]n2)N1 (centres undefined) ... inactive
Cc1cc(C)cc(Oc2cccc(-c3c(C)nnn3C3CCN(CCN(C)C)CC3)n2)c1 ... active
CC(=O)c1cc(C(=O)N2c3ccccc3Sc3ccccc32)n2ccc(C)cc12 ... inactive

**Q:** # outcome recorded in this test, key = COc1ccc2[nH]c(O)c(N=NC(=O)c3cc(-c4ccc(C)cc4)nc4ccccc34)c2c1
**A:** inactive

**Q:** # outcome recorded in this test, key = CCOC(=O)CNC(=O)CN(Cc1ccccc1)C(=O)[C@@]1(C)CCC[C@]2(C)[C@H]3C[C@H]4C(C(C)C)=C[C@]3(CC[C@H]21)[C@@H]1C(=O)OC(=O)[C@@H]14
**A:** inactive

**Q:** # outcome recorded in this test, key = CC(=O)c1ccc(NC(=O)NCn2c(=O)[nH]c3ccccc3c2=O)cc1
**A:** inactive
